Task for the reader: assign each of the following molecules its reported bioluminescence intensity higher than GLuc (area ratio).
experiment: Area of luminescence spectrum of GLuc variants (20-minute lysis, luminescence plate reader)
Type: biochemical
condition parameters: plate reader
State just the number; it will be interpreted in times.

// field: bioluminescence intensity higher than GLuc (area ratio); key: H95E: GLuc variant, histidine at position 95 replaced with glutamic acid (protein, GLuc mutant (H95E)) MGVKVLFALICIAVAEAKPTENNEDFNIVAVASNFATTDLDADRGKLPGKKLPLEVLKEMEANARKAGCTRGCLICLSHIKCTPKMKKFIPGRCETYEGDKESAQGGIGEAIVDIPEIPGFKDLEPMEQFIAQVDLCVDCTTGCLKGLANVQCSDLLKKWLPQRCATFASKIQGQVDKIKGAGGDKDEL ; value = 3.0

// field: bioluminescence intensity higher than GLuc (area ratio); key: Y97W: GLuc variant in which tyrosine (Y) at position 97 was mutated to tryptophan (W) (protein, GLuc mutant (Y97W)) MGVKVLFALICIAVAEAKPTENNEDFNIVAVASNFATTDLDADRGKLPGKKLPLEVLKEMEANARKAGCTRGCLICLSHIKCTPKMKKFIPGRCHTWEGDKESAQGGIGEAIVDIPEIPGFKDLEPMEQFIAQVDLCVDCTTGCLKGLANVQCSDLLKKWLPQRCATFASKIQGQVDKIKGAGGDKDEL ; value = 2.1

// field: bioluminescence intensity higher than GLuc (area ratio); key: F89W/I90L: GLuc with isoleucine 90 replaced with leucine and phenylalanine 89 with tryptophan (protein, GLuc mutant (F89W/I90L); named 8990) MGVKVLFALICIAVAEAKPTENNEDFNIVAVASNFATTDLDADRGKLPGKKLPLEVLKEMEANARKAGCTRGCLICLSHIKCTPKMKKWLPGRCHTYEGDKESAQGGIGEAIVDIPEIPGFKDLEPMEQFIAQVDLCVDCTTGCLKGLANVQCSDLLKKWLPQRCATFASKIQGQVDKIKGAGGDKDEL ; value = 10.2
